System: Escherichia coli TOP10
experiment notes: shrunken log2 fold change of peptide-encoding DNA abundance (4.5 h post-induction vs induction); higher = less antimicrobial activity (less host growth inhibition)
experimental parameters: time post-induction: 4.5 h; library: site-saturation at positions 5, 18, 19, 20
assay endpoint: shrunken log2 fold change
Write the number on its own, no unit after it.

{"input sequence": "RRIRKRPPRLPRPRPRPYTQPRP", "shrunken log2 fold change": -0.0811}
{"input sequence": "RRIRKRPPRLPRPRPRPMTNPRP", "shrunken log2 fold change": 0.184}
{"input sequence": "RRIRMRPPRLPRPRPRPDPNPRP", "shrunken log2 fold change": 0.0963}
{"input sequence": "RRIRNRPPRLPRPRPRPWSKPRP", "shrunken log2 fold change": -0.167}
{"input sequence": "RRIRARPPRLPRPRPRPFENPRP", "shrunken log2 fold change": 0.166}

Would you kindly share the measured shrunken log2 fold change for `RRIRQRPPRLPRPRPRPKENPRP` ?
0.168

If you can, please state the reported shrunken log2 fold change value of `RRIRPRPPRLPRPRPRPWGEPRP` .
0.113

Please look up its shrunken log2 fold change: `RRIRVRPPRLPRPRPRPLCDPRP`
-0.108

State the recorded shrunken log2 fold change for this entry: `RRIRRRPPRLPRPRPRPPGVPRP`
0.704

Using the record for `RRIRYRPPRLPRPRPRPFNVPRP` , report its shrunken log2 fold change.
0.0019

Requested field: shrunken log2 fold change. Item: `RRIRKRPPRLPRPRPRPEGFPRP`
0.802

Given the sequence `RRIRERPPRLPRPRPRPGVQPRP` , what is its reported shrunken log2 fold change?
-0.351

* * *

Test system: Escherichia coli TOP10
experiment notes: shrunken log2 fold change of peptide-encoding DNA abundance (4.5 h post-induction vs induction); higher = less antimicrobial activity (less host growth inhibition)
experimental parameters: time post-induction: 4.5 h; library: site-saturation at positions 5, 18, 19, 20
Heads up, the class ranges for shrunken log2 fold change are low value: < -0.2; medium value: ≥ -0.2 and < 0.005; high value: ≥ 0.005

Reference set, count: 8
{"input sequence": "RRIRDRPPRLPRPRPRPRTCPRP", "label value": "medium value"}
{"input sequence": "RRIRRRPPRLPRPRPRPVVYPRP", "label value": "high value"}
{"input sequence": "RRIRERPPRLPRPRPRPRPEPRP", "label value": "high value"}
{"input sequence": "RRIRKRPPRLPRPRPRPCNDPRP", "label value": "medium value"}
{"input sequence": "RRIRHRPPRLPRPRPRPWTVPRP", "label value": "low value"}
{"input sequence": "RRIRVRPPRLPRPRPRPFENPRP", "label value": "medium value"}
{"input sequence": "RRIRGRPPRLPRPRPRPYVKPRP", "label value": "low value"}
{"input sequence": "RRIRCRPPRLPRPRPRPQHGPRP", "label value": "low value"}

Each sequence maps to one class by shrunken log2 fold change. Which class for `RRIRWRPPRLPRPRPRPVFWPRP` ?
high value

Which shrunken log2 fold change category applies to `RRIRWRPPRLPRPRPRPQQRPRP` here?
medium value

Hey, which category is `RRIRIRPPRLPRPRPRPNAYPRP` in, do you know?
low value

Category lookup for the sequence `RRIRARPPRLPRPRPRPDSYPRP`
medium value

For the record `RRIRERPPRLPRPRPRPAFGPRP` , report the class its shrunken log2 fold change corresponds to.
high value

Just checking, what class would you give `RRIRIRPPRLPRPRPRPNNPPRP` here?
low value

* * *

Test system: Escherichia coli TOP10
experiment notes: shrunken log2 fold change of peptide-encoding DNA abundance (4.5 h post-induction vs induction); higher = less antimicrobial activity (less host growth inhibition)
experimental parameters: time post-induction: 4.5 h; library: site-saturation at positions 5, 18, 19, 20
Short version: shrunken log2 fold change at least -0.05 is class 1, less is class 0.

Reference set, count: 4
{"input sequence": "RRIRWRPPRLPRPRPRPNFDPRP", "label value": "class 1"}
{"input sequence": "RRIRRRPPRLPRPRPRPVKGPRP", "label value": "class 0"}
{"input sequence": "RRIRDRPPRLPRPRPRPVVAPRP", "label value": "class 1"}
{"input sequence": "RRIRCRPPRLPRPRPRPEYSPRP", "label value": "class 0"}

Textbook exercise: given the entry `RRIRHRPPRLPRPRPRPCADPRP` , state whether its shrunken log2 fold change is greater than or equal to -0.05.
class 0

Check if shrunken log2 fold change >= -0.05 (inclusive). Item: `RRIRERPPRLPRPRPRPWIGPRP`
class 1

Decide: is the reported value of shrunken log2 fold change for `RRIRERPPRLPRPRPRPMTEPRP` equal to or greater than -0.05?
class 0

I'd appreciate it if you could say whether `RRIRPRPPRLPRPRPRPMEMPRP` has shrunken log2 fold change at least equal to -0.05.
class 1

Does the reported shrunken log2 fold change for `RRIRIRPPRLPRPRPRPMHGPRP` fall at or above the -0.05 mark?
class 0

* * *

Tested on: Escherichia coli TOP10
experiment notes: shrunken log2 fold change of peptide-encoding DNA abundance (4.5 h post-induction vs induction); higher = less antimicrobial activity (less host growth inhibition)
experimental parameters: time post-induction: 4.5 h; library: site-saturation at positions 5, 18, 19, 20
assay endpoint: shrunken log2 fold change
Write the value as a bare number.

Worked cases, answers included:
{"input sequence": "RRIRWRPPRLPRPRPRPEIIPRP", "shrunken log2 fold change": 0.231}
{"input sequence": "RRIRLRPPRLPRPRPRPPAKPRP", "shrunken log2 fold change": 0.529}
{"input sequence": "RRIRTRPPRLPRPRPRPTACPRP", "shrunken log2 fold change": 0.277}
{"input sequence": "RRIRVRPPRLPRPRPRPSQPPRP", "shrunken log2 fold change": -0.112}

Recorded shrunken log2 fold change for `RRIRRRPPRLPRPRPRPYAVPRP` , please?
-0.191

Recorded shrunken log2 fold change of `RRIRPRPPRLPRPRPRPVIVPRP` , please.
-0.212

What value of shrunken log2 fold change has been reported for the following sequence? `RRIRIRPPRLPRPRPRPVMYPRP`
-0.052

Consider the sequence shown here: `RRIRYRPPRLPRPRPRPDWTPRP` What is its recorded shrunken log2 fold change?
0.0173

Look up shrunken log2 fold change for this sequence: `RRIRFRPPRLPRPRPRPNSGPRP`
-0.166

// query shrunken log2 fold change value for entry `RRIRHRPPRLPRPRPRPQSWPRP`
0.0657

Suppose we examine the sequence `RRIRERPPRLPRPRPRPHVHPRP` ; what shrunken log2 fold change value has been reported?
-0.315

Data request, read-out shrunken log2 fold change, for `RRIRLRPPRLPRPRPRPCFAPRP`
0.179

What value of shrunken log2 fold change has been recorded for this entry: `RRIRARPPRLPRPRPRPEPCPRP`
0.126

Dear colleague, I am looking for the recorded shrunken log2 fold change of the following sequence: `RRIRNRPPRLPRPRPRPPYYPRP`
-0.575

Can you look up the measured shrunken log2 fold change of `RRIRERPPRLPRPRPRPLLAPRP` for me?
0.173

* * *

Measured shrunken log2 fold change accompanies every entry in the list below.
System: Escherichia coli TOP10
experiment notes: shrunken log2 fold change of peptide-encoding DNA abundance (4.5 h post-induction vs induction); higher = less antimicrobial activity (less host growth inhibition)
experimental parameters: time post-induction: 4.5 h; library: site-saturation at positions 5, 18, 19, 20
Lab note: jot down the number only; don't add units.

{"input sequence": "RRIRKRPPRLPRPRPRPACKPRP", "shrunken log2 fold change": 0.0609}

What value of measured shrunken log2 fold change is listed for `RRIRQRPPRLPRPRPRPMFQPRP` ?
-0.467

# shrunken log2 fold change lookup, item `RRIRSRPPRLPRPRPRPEQNPRP`
0.274

Consider the sequence `RRIRWRPPRLPRPRPRPWTCPRP` and give its measured shrunken log2 fold change.
0.0612

For `RRIRVRPPRLPRPRPRPLGWPRP` , what is its reported shrunken log2 fold change?
0.467

Suppose we examine the sequence `RRIRWRPPRLPRPRPRPHSYPRP` ; what shrunken log2 fold change value has been reported?
-0.0789

* * *

Tested on: Escherichia coli TOP10;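 further: peptides expressed intracellularly from a pBAD plasmid library in pooled LB shake-flask culture, induced with 0.3% L-arabinose, DNA abundance read by NGS, three biological replicates, DESeq2 with apeglm shrinkage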
experiment notes: shrunken log2 fold change of peptide-encoding DNA abundance (4.5 h post-induction vs induction); higher = less antimicrobial activity (less host growth inhibition)
experimental parameters: time post-induction: 4.5 h; library: site-saturation at positions 5, 18, 19, 20
assay endpoint: shrunken log2 fold change

Examples from the recorded data:
{"input sequence": "RRIRTRPPRLPRPRPRPMVIPRP", "observed": -0.0894}
{"input sequence": "RRIRVRPPRLPRPRPRPTRTPRP", "observed": 0.495}
{"input sequence": "RRIRGRPPRLPRPRPRPPMGPRP", "observed": 0.59}
{"input sequence": "RRIRSRPPRLPRPRPRPKNLPRP", "observed": -0.599}
{"input sequence": "RRIRPRPPRLPRPRPRPQLIPRP", "observed": -0.108}

Fill in the blank: the reported shrunken log2 fold change of `RRIRYRPPRLPRPRPRPLFLPRP` is ____.
-0.171

shrunken log2 fold change lookup needed for `RRIRTRPPRLPRPRPRPERTPRP` , thanks.
-0.0336

Reported shrunken log2 fold change, sequence `RRIRGRPPRLPRPRPRPDVIPRP` : ____
0.68

Name the recorded shrunken log2 fold change for `RRIRCRPPRLPRPRPRPRISPRP` .
-0.248
